# target_entity: human macrophage migration inhibitory factor (MIF) (human, UniProt P14174 2-115)
# Sequence (P14174 2-115 limits assumed): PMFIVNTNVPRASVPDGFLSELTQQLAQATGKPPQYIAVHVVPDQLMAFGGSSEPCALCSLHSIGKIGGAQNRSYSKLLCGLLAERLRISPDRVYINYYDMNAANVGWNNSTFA
# test_summary: cell-based or functional assay
readout_type: MIF Stimulated SRE Transcription (% MIF Activity), 10 µg mab/ml
A complete answer gives the number followed by the unit.

Entry under test: anti-MIF monoclonal antibody 33G7-9 (antibody, V domains shown) VH: DVQLQESGPDLVKPSQSLSLTCSVTGYSITSGYYWNWIRQFPGNKLEWVGYLSYDGSKSHNPSLRNRISITRDPSKNQFFLKLNSVTTEDTATYYCARGGKIFYGSSYDPFAYWGQGTLVTVSS VL: DIQMTQSPASLSASVGETVTITCRASENIFNYLSWYQQKQGKSPQLLVYNVKTLTDGVPSRFSGSGSGTQFSLKINSLQPEDFGSYYCQHHYDTPYTFGRGTKLEIKR . Its MIF Stimulated SRE Transcription (% MIF Activity), 10 µg mab/ml was 5%

Entry under test: anti-MIF monoclonal antibody 19B11-7 (antibody, V domains shown, Mouse hybridoma antibody from a MIF knockout mouse, purified from ascites) VH: QIQLVQSGPELKKPGETVKISCKASGYSFRNYGMNWVSQPPGKGLEWMGWINTYTGEPTYADDFKGRFAFSLDTSASTAYLTINNLKNEDTATYFCARSNYGNYFDYWGQGTTLTVSA VL: NIVLTQSPASLALSLGQRATISCRTSESVDSYASSFMHWYQQKPGQSPKLLIYLASNLESGVPARFSGSGSRTDFTLTIDPVEADDAATYYCQQSNEDPRTFGGGTQLEIKR . Its MIF Stimulated SRE Transcription (% MIF Activity), 10 µg mab/ml was 29%

Entry under test: anti-MIF monoclonal antibody 6B5-5 (antibody, V domains shown) VH: DVQLQESGPGLVKPSQSLSLTCTVTGSSITSDYAWHWIRQFPGNKLEWMGYISFSGSTGYNPSLKSRFSITRDTSKNQFFLQLNSVTTEDTATYYCAREAYGYDVGYFDYWGQGTTLTVSS VL: QIVLTQSPAIMSAFPGEKVTITCSASSSVSYMHWFQQKPGTSPKLWIYGTSNLASGVPVRFSGSGSGTSYSLTISRMEAEDAATYYCQQRSSYPWTFGGGTKLEIKR . Its MIF Stimulated SRE Transcription (% MIF Activity), 10 µg mab/ml was 36%

Entry under test: anti-MIF monoclonal antibody 22F11-6 (antibody, V domains shown, Mouse hybridoma antibody from a MIF knockout mouse, purified from ascites; also called Mab 22F11-6) VH: EVKLEESGGGLVQPGGSMKLSCAASGFTFGDAWMYWVRQSPEKGLEWVAEIRSKAHNHATYYAESVKGRFTISRDDSKSSVYLQMSSLRAEDTGIYYCTSHHYGSSWYFDVWGAGTTVTVSS VL: DIQMTQSPASLSASVGETVTITCRASENIYSYLTWFQQKQGKSPQLLVYDAKTLAEGVPSSFSGSGSGTQFSLKIISLQPEHFGSYYCQHHYGRPYTFGGGTKLEIKR . Its MIF Stimulated SRE Transcription (% MIF Activity), 10 µg mab/ml was 42%
